// values below are reported growth inhibition
# MEASUREMENT NOTES: NCI Yeast Anticancer Drug Screen. Data for the mec2-1 strain (AID 157)
# CONDITION LABEL: S. cerevisiae mec2-1 strain, at 50.0 µM (retest, dose inferred, filed as 5.0), active compounds read high
About 79,000 compounds went through this panel and 15% of them were active in at least one assay; those are over-represented in the sample as a whole. Activity calls are given as the source filed them. Cut-off read from the data, not from the text of the source: active = growth inhibition above about 70%; inactive = the rest.

Reference set, count: 5
O=C1CSC(c2ccccc2O)N1c1ccc(-n2c(-c3ccccc3)nc3ccccc3c2=O)cc1 (configuration not stated) = 39% (inactive)
COc1cc(/C=C/C(=O)Sc2ccccc2)cc(OC)c1O = 58% (inactive)
C=CCNCCC1CCCCCC1 = 97% (active)
CCO/C=C1/N=C(c2cc(Cl)cc([N+](=O)[O-])c2)OC1=O = 12% (inactive)
Cc1cc(Cl)c2cc(Cc3ccc(Br)cc3)ccc2n1 = 20% (inactive)

growth inhibition in this record for COc1ccc(Br)c2c1CC(C(=O)O)CC2 (configuration not stated) : 26% (inactive)

growth inhibition for COC(C(=O)C1=C2Oc3c4c(cc(O)c3C(=O)C2C2=C(CCCC2)C1=O)OC(C)(C)C=C4)C(C)CCC=C(C)C (configuration not stated) is 90% (active)

According to the records, this compound O=c1ccc([N+](=O)[O-])c[nH]1.[Ag] displays growth inhibition of 99% (active)

Please fill in: growth inhibition reported for CCOC(CCl)Oc1c(C(C)C)cc(C(C)C)c(Cl)c1C (configuration not stated) = 57% (inactive)

The compound listed as OC(C/C(=N\N=C(/CC(O)(C(F)(F)F)C(F)(F)F)c1ccccc1)c1ccccc1)(C(F)(F)F)C(F)(F)F has a reported growth inhibition of -11% (inactive)

====

# MEASUREMENT NOTES: NCI Yeast Anticancer Drug Screen. Data for the bub3 strain (AID 167)
# CONDITION LABEL: S. cerevisiae bub3 mutant strain, at 50.0 µM
About 79,000 compounds went through this panel and 15% of them were active in at least one assay; those are over-represented in the sample as a whole. Active and inactive are the calls of the source. No stated cut-off is given here; in the data, active means growth inhibition above about 70%; inactive means the rest.
Please state which outcome applies, choosing from true for active, false for inactive

Example entries begin here.
CC(=O)N(C)c1ccc(/C=C2\C=Cc3ccccc32)cc1 = true
O=C(O)/C=C/c1ccc(Cl)cc1Cl = true
NS(=O)(=O)c1ccc(NC(=S)/N=C/c2c(O)c3ccccc3[nH]c2=O)cc1 = false
CCC(C)CNCCCCCNc1cc(OC)cc2cccnc12 (configuration not stated) = true
O=C1NC(c2ccccc2)(c2cccs2)C(=O)N1C1c2ccccc2Oc2ccccc21 (configuration not stated) = true

// switching to the query compound
Exercise: Name the outcome recorded for CC(C)C1=CC2=CC(=O)C3C(C)(C)CCCC3(C)C2=C(O)C1=O (configuration not stated) in the assay.
Solution: true

====

# MEASUREMENT NOTES: NCI Yeast Anticancer Drug Screen. Data for the mec2-1 strain (AID 157)
# CONDITION LABEL: S. cerevisiae mec2-1 strain, at 5.0 µM (retest, dose inferred, filed as 0.5), active compounds read high
This is part of a sample that, as a whole, favours compounds with a hit. Of some 79,000 tested, about 15% had one in any assay.
# growth inhibition per entry
The reply should be a number in %, with the unit left off.

S=C(CSc1ccccc1)Nc1cccc2ccccc12 = -12
Cc1ccc(C)c(C(=O)CCN)c1 = 1
C=CCNc1nc2c(s1)C(=O)c1ccccc1C2=O = 99
Cc1ccc2nc(N/N=C/c3cccc(C)n3)cc(C)c2c1 = -2
Cc1cc(=O)n(-c2ccc(F)cc2)n1C = -6

We now examine a further molecule.
Lab book: growth inhibition of CN1C(=O)CCC2[C@@H]3CC=C4C[C@@H](O)CC[C@]4(C)C3CC[C@@]21C (stereo partly specified) noted as 0
